- MEASURED_ON: T1, human insulin receptor isoform A with C-terminal C9 tag (human, UniProt P06213 28-1382)
- T1 construct: membranes of stably transfected HEK293 cells; also called hIR-A; human IR-A
- TEST_DESCRIPTION: 125I-insulin competition SPA, hIR-A membranes, 0.001% NP-40
READOUT_LABEL: Ki (nM)
Numeric only. Scale: nM

# example entries with known answers
INS Analog 8 (other, single-chain insulin B-L2-A-L1-VHH fusion; also called Ex. 8) FVSQHLCGSHLVEALYLVCGERGFHYTPKTGGGGGGGIVEQCCTSICSLYQLENYCGPGPAPGPAPGPAPGPAPGPAPGPAPGPAPGPAEVQLLESGGGLVQPGGSLRLSCAASGRYIDETAVAWFRQAPGKEREFVAGIGGGVDITYYADSVKGRFTISRDNSKNTLYLQMNSLRPEDTAVYYCAARPGRPLITSKVADLYPYWGQGTLVTVSSPP
47.3
INS Analog 7 (other, single-chain insulin B-L2-A-L1-VHH fusion; also called Ex. 7) FVSQHLCGSHLVEALYLVCGERGFFYTPKTGGGGGGGIVEQCCTSICSLYQLENYCGPGPAPGPAPGPAPGPAPGPAPGPAPGPAPGPAEVQLLESGGGLVQPGGSLRLSCAASGRYIDETAVAWFRQAPGKEREFVAGIGGGVDITYYADSVKGRFTISRDNSKNTLYLQMNSLRPEDTAVYYCAARPGRPLITSKVADLYPYWGQGTLVTVSSPP
14.3
INS Analog 2 (other, single-chain insulin B-L2-A-L1-VHH fusion; also called Ex. 2) FVDQHLCGSHLVEALYLVCGERGFFYTPKTGGGGGGGIVEQCCTSICSLYQLENYCGPGPAPGPAPGPAPGPAPGPAPGPAPGPAPGPAEVQLLESGGGLVQPGGSLRLSCAASGRTVSSTAVAWFRQAPGKEREFVAGIGGSVDITYYADSVKGRFTISRDNSKNTLYLQMNSLRPEDTAVYYCAVRPGRPLITSRDANLYDYWGQGTLVTVSS
45.1
INS Analog 9 (other, single-chain insulin B-L2-A-L1-VHH fusion; also called Ex. 9) FVSQHLCGSHLVEALYLVCGERGFHYTPKTGGGGGGGIVEQCCHSICSLYQLENYCGPGPAPGPAPGPAPGPAPGPAPGPAPGPAPGPAEVQLLESGGGLVQPGGSLRLSCAASGRYIDETAVAWFRQAPGKEREFVAGIGGGVDITYYADSVKGRFTISRDNSKNTLYLQMNSLRPEDTAVYYCAARPGRPLITSKVADLYPYWGQGTLVTVSSPP
6.67

# input for lookup
Query :: So what's the measured Ki for this one? INS Analog 17 (other, single-chain insulin B-L2-A-L1-VHH fusion; also called Ex. 17) FVSQHLCGSHLVEALRLVCGERGFFYTPKTGGGGGGGIVEQCCHSICSLYQLENYCGPGPAPGPAPGPAPGPAPGPAPGPAPGPAPGPAEVQLLESGGGLVQPGGSLRLSCAASGRYIDETAVAWFRQAPGKEREFVAGIGGGVDITYYADSVKGRFTISRDNSKNTLYLQMNSLRPEDTAVYYCAARPGRPLITSKVADLYPYWGQGTLVTVSSPP
Result :: 31.3
